The reported measurements were obtained from paper PMC10233829.

method: MTT assay, cytotoxic activity
Assay type: cell-based
condition label: human, HaCaT cells (immortal keratinocytes); MTT, 72 h, normal cell line; read-out: IC50 HaCaT
measured metric: IC50 at 72 h

Check out these entries, answers already filled in.
> print(dat)
                                smiles.text  observed
1  O=C(O)c1cn(C2CC2)c2cc(N3CCN(C(=O)CCCCCCl)CC3)c(F)cc2c1=O  > 100 µM
2  O=C(O)c1cn(C2CC2)c2cc(N3CCN(C(=O)CCBr)CC3)c(F)cc2c1=O  > 100 µM
3  O=C(O)c1cn(C2CC2)c2cc(N3CCN(C(=O)CCC(F)(F)F)CC3)c(F)cc2c1=O   85.5 µM
4  O=C(O)c1cn(C2CC2)c2cc(N3CCN(C(=O)CCCl)CC3)c(F)cc2c1=O  > 100 µM
5  O=C(O)c1cn(C2CC2)c2cc(N3CCN(C(=O)CC(F)(F)F)CC3)c(F)cc2c1=O  > 100 µM

(Q) Indicate its recorded IC50 at 72 h; the molecule in question is O=C(O)c1cn(C2CC2)c2cc(N3CCN(CCCC(=O)N4CCN(c5cc6c(cc5F)c(=O)c(C(=O)O)cn6C5CC5)CC4)CC3)c(F)cc2c1=O
(A) 92.2 µM

(Q) Indicate its recorded IC50 at 72 h; the molecule in question is O=C(O)c1cn(C2CC2)c2cc(N3CCN(C(=O)CCCCCBr)CC3)c(F)cc2c1=O
(A) > 100 µM

====

Test system: M. tuberculosis H37Rv
method: Tuberculostatic activity, Microplate Alamar Blue Assay (MIC)
Type: cell-based, Mycobacterium tuberculosis
condition label: Mycobacterium tuberculosis, H37RV; MABA; read-out: MIC M. tuberculosis H37Rv
measured metric: MIC
Number first, unit second.

(Q) Indicate its recorded MIC; the molecule in question is CC[C@@H](CO)NCCN[C@@H](CC)CO [ethambutol(EMB), ethambutol, reference compound]
(A) 2 µg/mL

(Q) Indicate its recorded MIC; the molecule in question is CO[C@H]1/C=C/O[C@@]2(C)Oc3c(C)c(O)c4c(O)c(c(/C=N/N5CCN(C)CC5)c(O)c4c3C2=O)NC(=O)/C(C)=C\C=C\[C@H](C)[C@H](O)[C@@H](C)[C@@H](O)[C@@H](C)[C@H](OC(C)=O)[C@@H]1C [rifampicin (RMP), rifampicin, reference compound]
(A) 1 µg/mL

(Q) Indicate its recorded MIC; the molecule in question is O=C(O)c1cn(C2CC2)c2cc(N3CCN(C(=O)CCl)CC3)c(F)cc2c1=O [Compound 3]
(A) 4 µg/mL

(Q) Indicate its recorded MIC; the molecule in question is O=C(O)c1cn(C2CC2)c2cc(N3CCN(CCCCCC(=O)N4CCN(c5cc6c(cc5F)c(=O)c(C(=O)O)cn6C5CC5)CC4)CC3)c(F)cc2c1=O [Compound 20, CP–Hexanoyl–CP Dimer]
(A) 32 µg/mL

====

method: MTT assay, cytotoxic activity
Type: cell-based
condition label: human
measured metric: IC50 at 72 h (nM)
Respond with the bare value in nM.

(Q) Indicate its recorded IC50 at 72 h; the compound in question is COc1cccc2c1C(=O)c1c(O)c3c(c(O)c1C2=O)C[C@@](O)(C(=O)CO)C[C@@H]3O[C@H]1C[C@H](N)[C@H](O)[C@H](C)O1 [doxorubicin, reference compound]
(A) 300
